Tested on: DON-ScFV-AP bifunctional fusion protein
Assay type: binding
measure: IC50

// worked examples, IC50 included
>  <sample smiles>
CC(=O)OC[C@]12[C@H](O)C(=O)C(C)=C[C@H]1O[C@@H]1[C@H](O)C[C@@]2(C)[C@]12CO2

>  <IC50>
64 ppb

$$$$
>  <sample smiles>
CC1=C[C@H]2O[C@@H]3[C@H](O)[C@@H](O)[C@](C)([C@@]2(CO)[C@H](O)C1=O)[C@]31CO1

>  <IC50>
610 ppb

$$$$
>  <sample smiles>
CC(=O)O[C@@H]1C[C@]2(C)[C@@]3(CO)[C@H](O)C(=O)C(C)=C[C@H]3O[C@H]1[C@@]21CO1

>  <IC50>
2.3 ppb

$$$$
>  <sample smiles>
CC1=C[C@H]2O[C@@H]3[C@H](O)C[C@](C)([C@@]2(CO)[C@H](O)C1=O)[C@]31CO1

>  <IC50>
2.4 ppb

$$$$
>  <sample smiles>
C[C@H]1CCCC(=O)CCC/C=C/c2cc(O)cc(O)c2C(=O)O1

>  <IC50>
>20 ppm

$$$$

--- query ---
Ask: Consider the molecule C[C@@H]1Cc2c(Cl)cc(C(=O)N[C@@H](Cc3ccccc3)C(=O)O)c(O)c2C(=O)O1 . State its measured IC50.
Result: >1.9 ppm

Each recorded value in this set is attributed to patent US12306178B2.
